Target: c-Met (Homo sapiens, UniProt P08581)
Sequence (P08581 25-1390): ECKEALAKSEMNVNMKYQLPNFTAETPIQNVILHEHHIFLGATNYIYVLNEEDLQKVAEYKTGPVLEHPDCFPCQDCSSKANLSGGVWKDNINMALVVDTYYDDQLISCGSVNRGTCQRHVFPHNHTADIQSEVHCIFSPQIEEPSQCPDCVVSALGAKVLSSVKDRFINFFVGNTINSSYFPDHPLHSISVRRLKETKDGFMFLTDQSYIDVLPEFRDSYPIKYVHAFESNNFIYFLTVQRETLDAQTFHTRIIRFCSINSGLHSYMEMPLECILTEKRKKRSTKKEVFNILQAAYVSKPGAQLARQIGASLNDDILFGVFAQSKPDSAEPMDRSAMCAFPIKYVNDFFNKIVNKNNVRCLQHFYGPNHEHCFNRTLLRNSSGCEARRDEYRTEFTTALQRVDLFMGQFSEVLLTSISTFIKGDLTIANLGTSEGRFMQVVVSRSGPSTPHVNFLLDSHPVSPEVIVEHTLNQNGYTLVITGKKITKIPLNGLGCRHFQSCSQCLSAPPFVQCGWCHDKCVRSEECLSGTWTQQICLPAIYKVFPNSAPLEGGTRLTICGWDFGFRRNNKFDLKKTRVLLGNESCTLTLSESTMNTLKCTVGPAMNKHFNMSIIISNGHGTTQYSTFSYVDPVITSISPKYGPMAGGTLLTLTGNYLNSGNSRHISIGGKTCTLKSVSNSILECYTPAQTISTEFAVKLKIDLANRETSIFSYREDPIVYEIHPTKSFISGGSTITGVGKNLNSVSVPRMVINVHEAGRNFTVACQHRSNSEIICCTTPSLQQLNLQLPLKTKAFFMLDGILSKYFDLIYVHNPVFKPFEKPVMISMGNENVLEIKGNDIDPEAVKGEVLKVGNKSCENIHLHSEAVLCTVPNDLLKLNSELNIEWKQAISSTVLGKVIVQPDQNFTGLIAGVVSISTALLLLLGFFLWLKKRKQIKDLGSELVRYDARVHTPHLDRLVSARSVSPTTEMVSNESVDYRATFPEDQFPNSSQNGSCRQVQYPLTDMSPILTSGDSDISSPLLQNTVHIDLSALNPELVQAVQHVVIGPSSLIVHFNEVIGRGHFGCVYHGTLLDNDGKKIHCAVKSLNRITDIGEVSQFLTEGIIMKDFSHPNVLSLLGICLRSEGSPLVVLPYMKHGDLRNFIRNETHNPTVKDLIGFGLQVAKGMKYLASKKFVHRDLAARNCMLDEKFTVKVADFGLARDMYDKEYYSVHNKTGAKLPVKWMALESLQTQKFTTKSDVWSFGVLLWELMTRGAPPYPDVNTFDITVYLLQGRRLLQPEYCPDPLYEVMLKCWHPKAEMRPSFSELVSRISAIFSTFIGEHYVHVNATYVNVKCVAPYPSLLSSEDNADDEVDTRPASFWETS
READOUT_NAME: Ki

Q: What is its Ki for c-Met (Homo sapiens, UniProt P08581)? Entry: C[C@H](c1ccc2ncccc2c1)c1nnc2sc(-c3cnn(C)c3)nn12
Ans: < 300 nM
